target: Cav1.2 (voltage-dependent L-type calcium channel subunit alpha-1C) (Rattus norvegicus, UniProt P22002); test: Displacement of [3H]nitrendipine from Cav1.2 in Wistar rat cerebral cortex at 10 uM measured after 90 mins by scintillation counting method relative to control; settings: probe [3H]nitrendipine
Sequence (P22002 whole entry): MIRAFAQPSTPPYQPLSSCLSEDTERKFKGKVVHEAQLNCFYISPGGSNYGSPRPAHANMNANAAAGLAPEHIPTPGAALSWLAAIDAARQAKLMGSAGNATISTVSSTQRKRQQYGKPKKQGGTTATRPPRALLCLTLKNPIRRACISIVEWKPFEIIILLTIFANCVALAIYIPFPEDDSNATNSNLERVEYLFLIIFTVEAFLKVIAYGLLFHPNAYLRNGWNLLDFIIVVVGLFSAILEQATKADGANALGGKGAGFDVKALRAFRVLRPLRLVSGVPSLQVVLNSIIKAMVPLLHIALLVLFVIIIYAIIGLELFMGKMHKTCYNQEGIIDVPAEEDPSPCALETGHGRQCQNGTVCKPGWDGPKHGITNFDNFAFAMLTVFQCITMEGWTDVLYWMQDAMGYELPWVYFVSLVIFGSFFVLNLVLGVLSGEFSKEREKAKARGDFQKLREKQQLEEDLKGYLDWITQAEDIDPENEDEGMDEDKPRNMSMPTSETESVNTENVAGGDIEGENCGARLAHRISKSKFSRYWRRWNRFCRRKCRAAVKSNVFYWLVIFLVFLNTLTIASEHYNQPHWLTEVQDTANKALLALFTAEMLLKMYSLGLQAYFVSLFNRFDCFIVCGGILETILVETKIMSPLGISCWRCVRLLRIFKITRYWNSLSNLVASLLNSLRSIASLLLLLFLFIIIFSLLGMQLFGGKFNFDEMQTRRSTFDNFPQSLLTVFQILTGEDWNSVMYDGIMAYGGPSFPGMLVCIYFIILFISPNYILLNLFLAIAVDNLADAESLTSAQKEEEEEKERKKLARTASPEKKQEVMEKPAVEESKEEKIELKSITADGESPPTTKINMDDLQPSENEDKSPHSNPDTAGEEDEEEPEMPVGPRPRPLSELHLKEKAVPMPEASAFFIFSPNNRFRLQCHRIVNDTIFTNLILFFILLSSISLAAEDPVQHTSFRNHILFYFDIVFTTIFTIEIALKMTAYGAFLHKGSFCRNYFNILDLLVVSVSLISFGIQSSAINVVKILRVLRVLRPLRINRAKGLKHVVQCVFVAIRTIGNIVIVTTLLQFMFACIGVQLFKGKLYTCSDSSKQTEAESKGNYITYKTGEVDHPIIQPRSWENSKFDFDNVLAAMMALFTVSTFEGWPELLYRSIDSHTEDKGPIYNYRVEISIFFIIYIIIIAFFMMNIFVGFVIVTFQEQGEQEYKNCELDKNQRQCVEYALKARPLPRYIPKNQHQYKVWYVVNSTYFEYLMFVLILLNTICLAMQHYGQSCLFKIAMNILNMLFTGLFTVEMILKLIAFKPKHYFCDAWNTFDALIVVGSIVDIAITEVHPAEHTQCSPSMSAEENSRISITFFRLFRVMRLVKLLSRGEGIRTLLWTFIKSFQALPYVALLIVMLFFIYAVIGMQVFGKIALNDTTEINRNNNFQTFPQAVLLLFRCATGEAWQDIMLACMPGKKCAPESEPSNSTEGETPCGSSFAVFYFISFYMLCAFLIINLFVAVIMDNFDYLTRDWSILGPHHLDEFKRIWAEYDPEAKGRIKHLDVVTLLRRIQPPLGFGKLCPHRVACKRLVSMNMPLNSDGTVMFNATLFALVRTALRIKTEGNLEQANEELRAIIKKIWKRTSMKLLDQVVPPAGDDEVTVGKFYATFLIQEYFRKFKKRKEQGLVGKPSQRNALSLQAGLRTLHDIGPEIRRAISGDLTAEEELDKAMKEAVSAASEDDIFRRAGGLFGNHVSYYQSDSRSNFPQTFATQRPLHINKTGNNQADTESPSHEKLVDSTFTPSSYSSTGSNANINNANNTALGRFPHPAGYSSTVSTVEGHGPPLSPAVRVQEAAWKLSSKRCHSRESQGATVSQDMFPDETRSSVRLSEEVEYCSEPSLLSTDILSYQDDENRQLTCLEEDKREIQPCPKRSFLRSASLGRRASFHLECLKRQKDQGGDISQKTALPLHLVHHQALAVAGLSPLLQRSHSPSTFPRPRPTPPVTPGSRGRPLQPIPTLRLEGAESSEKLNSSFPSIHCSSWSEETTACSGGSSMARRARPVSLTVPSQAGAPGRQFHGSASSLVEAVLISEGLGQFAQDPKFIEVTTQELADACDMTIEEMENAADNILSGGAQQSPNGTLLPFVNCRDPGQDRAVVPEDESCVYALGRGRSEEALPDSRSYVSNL
recorded-endpoint: inhibition at 1.5 h, 10 µM

mol: O=c1[nH]c(N2CCC3(CC2)CN(CCO)c2cc(F)cc(F)c23)nc2c1CCCC2
result: > 20%

====

biological target: Tankyrase 1/2 (Homo sapiens) (UniProt Q9H2K2+O95271); experiment: Inhibition of TNKS/TNKS2 in human COLO320DM cells assessed as upregulation of AXIN2 expression at 0.1 uM measured after 16 hrs by Western blot analysis relative to G007-LK; assay type: cell-based
Sequence (O95271 whole entry, looked up): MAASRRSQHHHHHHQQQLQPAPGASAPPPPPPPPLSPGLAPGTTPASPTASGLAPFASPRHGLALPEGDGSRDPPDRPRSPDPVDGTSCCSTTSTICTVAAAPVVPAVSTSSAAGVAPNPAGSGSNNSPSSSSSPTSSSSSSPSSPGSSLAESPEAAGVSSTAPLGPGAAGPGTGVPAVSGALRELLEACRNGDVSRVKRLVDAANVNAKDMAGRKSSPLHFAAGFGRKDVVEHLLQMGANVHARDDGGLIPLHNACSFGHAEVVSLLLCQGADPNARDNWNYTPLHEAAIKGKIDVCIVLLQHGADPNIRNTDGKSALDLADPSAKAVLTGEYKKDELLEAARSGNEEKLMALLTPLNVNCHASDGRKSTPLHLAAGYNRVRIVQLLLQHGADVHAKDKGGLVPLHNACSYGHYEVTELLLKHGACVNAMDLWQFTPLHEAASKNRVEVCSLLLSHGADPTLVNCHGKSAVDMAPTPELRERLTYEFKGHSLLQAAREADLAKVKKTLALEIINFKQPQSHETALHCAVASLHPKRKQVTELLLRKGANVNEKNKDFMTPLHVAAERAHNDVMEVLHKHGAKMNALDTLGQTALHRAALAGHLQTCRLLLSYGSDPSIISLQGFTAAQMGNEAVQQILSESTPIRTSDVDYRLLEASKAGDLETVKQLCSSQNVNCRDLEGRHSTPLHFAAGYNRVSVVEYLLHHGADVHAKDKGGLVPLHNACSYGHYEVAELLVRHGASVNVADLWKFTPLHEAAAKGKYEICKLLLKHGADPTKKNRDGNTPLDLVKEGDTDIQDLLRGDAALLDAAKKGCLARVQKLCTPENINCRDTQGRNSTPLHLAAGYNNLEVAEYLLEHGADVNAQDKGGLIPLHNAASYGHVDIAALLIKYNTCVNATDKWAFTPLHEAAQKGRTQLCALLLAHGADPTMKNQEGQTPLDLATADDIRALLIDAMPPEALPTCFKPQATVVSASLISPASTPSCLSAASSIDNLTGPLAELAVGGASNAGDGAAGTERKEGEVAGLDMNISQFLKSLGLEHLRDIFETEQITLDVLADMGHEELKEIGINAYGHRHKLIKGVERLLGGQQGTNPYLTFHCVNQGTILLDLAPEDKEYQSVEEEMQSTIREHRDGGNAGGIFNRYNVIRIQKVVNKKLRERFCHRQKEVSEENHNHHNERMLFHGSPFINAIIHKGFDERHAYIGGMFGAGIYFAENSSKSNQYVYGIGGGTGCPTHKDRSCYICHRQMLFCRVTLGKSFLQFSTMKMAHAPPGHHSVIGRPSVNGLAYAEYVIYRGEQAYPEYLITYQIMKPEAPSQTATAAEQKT
Sequence (Q9H2K2 whole entry, looked up): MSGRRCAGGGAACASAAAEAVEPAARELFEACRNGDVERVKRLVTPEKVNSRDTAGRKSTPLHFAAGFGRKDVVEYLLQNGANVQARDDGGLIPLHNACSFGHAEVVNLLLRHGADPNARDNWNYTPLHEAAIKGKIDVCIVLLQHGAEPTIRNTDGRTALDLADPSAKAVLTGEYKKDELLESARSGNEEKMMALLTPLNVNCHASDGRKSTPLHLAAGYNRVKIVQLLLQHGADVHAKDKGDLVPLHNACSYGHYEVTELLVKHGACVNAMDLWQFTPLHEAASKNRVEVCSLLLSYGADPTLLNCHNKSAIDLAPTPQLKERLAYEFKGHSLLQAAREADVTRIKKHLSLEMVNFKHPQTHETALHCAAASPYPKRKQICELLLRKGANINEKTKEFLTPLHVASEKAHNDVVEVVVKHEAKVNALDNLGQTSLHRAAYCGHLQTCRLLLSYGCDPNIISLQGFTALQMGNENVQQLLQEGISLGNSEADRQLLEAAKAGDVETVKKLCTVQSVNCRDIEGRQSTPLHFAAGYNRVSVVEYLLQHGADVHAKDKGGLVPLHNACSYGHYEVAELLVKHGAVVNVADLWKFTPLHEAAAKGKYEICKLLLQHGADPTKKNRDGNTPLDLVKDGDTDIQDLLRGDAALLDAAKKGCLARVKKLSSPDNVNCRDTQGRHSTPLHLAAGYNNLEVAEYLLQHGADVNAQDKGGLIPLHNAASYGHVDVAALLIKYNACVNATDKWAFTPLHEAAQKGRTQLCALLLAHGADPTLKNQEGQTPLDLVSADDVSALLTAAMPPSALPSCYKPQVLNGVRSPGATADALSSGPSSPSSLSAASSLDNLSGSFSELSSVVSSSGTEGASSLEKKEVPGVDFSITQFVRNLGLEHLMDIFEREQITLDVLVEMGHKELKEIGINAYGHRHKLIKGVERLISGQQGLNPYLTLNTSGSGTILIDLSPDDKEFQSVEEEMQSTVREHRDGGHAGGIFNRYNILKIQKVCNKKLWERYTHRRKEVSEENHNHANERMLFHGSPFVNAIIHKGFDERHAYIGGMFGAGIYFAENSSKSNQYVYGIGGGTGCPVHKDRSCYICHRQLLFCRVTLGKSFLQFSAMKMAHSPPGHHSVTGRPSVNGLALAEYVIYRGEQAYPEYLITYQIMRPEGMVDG
Rule: fold change (FC) of 4 or more gives condition met; anything lower gives condition not met.

mol: O=C1N(CCO)c2cc(Cl)cc(Cl)c2C12CCN(c1nc3c(c(=O)[nH]1)CCCC3)CC2
qualitative-label: condition met
--
mol: O=c1[nH]c(N2CCC3(CC2)CN(CCO)c2cccc(Cl)c23)nc2c1CCCC2
qualitative-label: condition met
--
mol: O=C1N(CCO)c2cccc(Cl)c2C12CCN(c1nc3c(c(=O)[nH]1)CCCC3)CC2
qualitative-label: condition met
--
mol: O=c1[nH]c(N2CCC3(CC2)CN(CCO)c2ccccc23)nc2c1CCCC2
qualitative-label: condition not met
--
mol: O=c1[nH]c(N2CCC3(CC2)CN(CCO)c2cc(F)cc(F)c23)nc2c1CCCC2
qualitative-label: condition met
--
mol: O=C1N(CCO)c2ccccc2C12CCN(c1nc3c(c(=O)[nH]1)CCCC3)CC2
qualitative-label: condition not met
--
mol: O=c1[nH]c(N2CCC3(CC2)CN(CCO)c2cccc(F)c23)nc2c1CCCC2
qualitative-label: condition not met

====

experiment: Initial plasma concentration in Sprague-Dawley rat at 1 mg/kg, iv; format: ADME, organism-based

mol: COc1ccccc1N1CCN(c2nc3c(c(=O)[nH]2)CCCC3)CC1
C0 / nM: 1000

mol: CS(=O)(=O)c1ccc(-c2nnc(/C=C/c3nnc(-c4ccc(C#N)cc4)o3)n2-c2ccccc2Cl)nc1
C0 / nM: 1540

mol: O=c1[nH]c(N2CCC3(CC2)CN(CCO)c2cc(F)cc(F)c23)nc2c1CCCC2
C0 / nM: 9840

====

assay: Oral bioavailability in Sprague-Dawley rat at 3 mg/kg; format: ADME, organism-based; settings: in vivo
Here the recorded bioavailability is given for each entry.

mol: CS(=O)(=O)c1ccc(-c2nnc(/C=C/c3nnc(-c4ccc(C#N)cc4)o3)n2-c2ccccc2Cl)nc1
bioavailability: 97.8%

mol: COc1ccccc1N1CCN(c2nc3c(c(=O)[nH]2)CCCC3)CC1
bioavailability: 59.7%

mol: O=c1[nH]c(N2CCC3(CC2)CN(CCO)c2cc(F)cc(F)c23)nc2c1CCCC2
bioavailability: 59.8%

====

molecular target: Tankyrase 1/2 (Homo sapiens, UniProt Q9H2K2+O95271)
We label by threshold. Values of IC50 strictly beneath 600 nM are true (1). Values of 600 nM and up are false (0).

mol: COc1cccc(N2CCN(c3nc4c(c(=O)[nH]3)CCCC4)CC2)c1
qualitative-label: false (0)

mol: COc1ccccc1C1CCN(c2nc3c(c(=O)[nH]2)CCCC3)CC1
qualitative-label: true (1)

mol: O=c1[nH]c(N2CCC3(CC2)CNc2cccc(Cl)c23)nc2c1CCCC2
qualitative-label: true (1)

mol: COc1ccccc1N1CCN(c2nc3c(c(=O)[nH]2)CNCC3)CC1
qualitative-label: false (0)

mol: COc1ccccc1N1CCC(c2nc3c(c(=O)[nH]2)CCCC3)CC1
qualitative-label: false (0)

mol: O=c1[nH]c(N2CCC3(CC2)CNc2cc(Cl)ccc23)nc2c1CCCC2
qualitative-label: false (0)

mol: O=c1[nH]c(N2CCC3(CC2)CNc2cccc(Br)c23)nc2c1CCCC2
qualitative-label: true (1)

mol: O=c1[nH]c(N2CCC3(CC2)CNc2cc(F)ccc23)nc2c1CCCC2
qualitative-label: false (0)

mol: COc1ccccc1N1CCN(c2nc3c(c(=O)[nH]2)CSCC3)CC1
qualitative-label: true (1)
